Origin of the recorded values: ChEMBL document CHEMBL1201862

# Tested on: M14
# test summary: NCI tumour cell line growth inhibition, 48 h
Active and inactive are the calls of the source. Rule as the data show it: active = GI50 up to about 1.1 µM and inactive = higher.
readout label: GI50

For the compound COC(=O)[C@H]1C2CC[C@@H]3C45C[C@@H](c6ccoc6)O[C@@H]4O[C@@H](O2)C31CCC5C (stereo partly specified) , what GI50 is on record?
> 100 µM (inactive)

For the compound CC(C)(C)C(=O)OC12/C(=N/O)CCCCCC1c1ccccc12 (stereo unspecified) , what GI50 is on record?
16.9 µM (inactive)

For the compound CSCC[C@H](NC(=O)[C@H](CC(C)C)NC(=O)[C@@H](Cc1ccccc1)NC(=O)CNC(=O)[C@@H](NC(=O)[C@H](C)NC(=O)[C@H](Cc1c[nH]c2ccccc12)NC(=O)[C@H](CCC(N)=O)NC(=O)[C@H](N)CC(N)=O)C(C)C)C(N)=O , what GI50 is on record?
> 12.5 µM (inactive)

For the compound CCOC(=O)CC(NCc1ccc(/N=C/c2nc3ccc(C(F)(F)F)cc3nc2-c2ccccc2)cc1)C(=O)OCC (stereo unspecified) , what GI50 is on record?
> 80.7 µM (inactive)

For the compound CN1CCc2c([nH]c3ccccc23)C1 , what GI50 is on record?
> 100 µM (inactive)

For the compound COC(=O)c1ccc(/C=C2\Oc3cc(O)ccc3C2=O)cc1 , what GI50 is on record?
83.8 µM (inactive)

For the compound CC1(C)OC2[C@@H](CO[C@@]3([C@@H](O)CCO)OC(C)(C)O[C@@H]23)O1 (stereo partly specified) , what GI50 is on record?
> 100 µM (inactive)

For the compound CCOC(CI)O[C@@H]1C=C[C@H](OC(C)=O)C1 (stereo partly specified) , what GI50 is on record?
> 100 µM (inactive)

For the compound O=C1c2cc3c(cc2CC12Cc1ccc4c(c1C2=O)CCC4)CCCC3 (stereo unspecified) , what GI50 is on record?
> 100 µM (inactive)

For the compound c1ncc(C23C4C5C6C4C2C6C53)[nH]1 (stereo unspecified) , what GI50 is on record?
> 100 µM (inactive)

For the compound CC(=O)ONC(C(=O)C(C)(C)C)C(=O)C(C)(C)C , what GI50 is on record?
> 100 µM (inactive)

For the compound Cc1ccc(S(=O)(=O)N/N=C2\C3CC4CC(C3)C2C4)cc1 (stereo unspecified) , what GI50 is on record?
> 100 µM (inactive)

For the compound CC1N=C(c2ccccc2)OC1=O (stereo unspecified) , what GI50 is on record?
> 100 µM (inactive)

For the compound NS(=O)(=O)c1nnc(NSc2ccc([N+](=O)[O-])cc2)s1 , what GI50 is on record?
> 100 µM (inactive)

For the compound C[C@@H]1C(=O)O[C@H]1[C@H](O)CO , what GI50 is on record?
> 100 µM (inactive)

For the compound COc1ccc(C(=O)/C=C/c2ccc(OCCCOc3ccc(/C=C/C(=O)c4ccc(OC)cc4)cc3)cc2)cc1 , what GI50 is on record?
> 100 µM (inactive)

For the compound COc1ccc(N2C(=O)/C(=C/c3ccc(N(CCC#N)CCC#N)cc3C)N=C2/C=C\c2ccccc2)cc1 , what GI50 is on record?
27.1 µM (inactive)

For the compound CN(C)CCCn1c(-c2ccc(Br)cc2)cs/c1=N\c1ccccc1 , what GI50 is on record?
12.6 µM (inactive)

For the compound COC(=O)C(NC(=O)OC(C)(C)C)P(=O)(OC)OC (stereo unspecified) , what GI50 is on record?
> 100 µM (inactive)

For the compound COc1cc(/C=C2/CCCc3ccccc3C2=O)cc(OC)c1OC , what GI50 is on record?
18.7 µM (inactive)

For the compound COc1cc2cc(C(=O)N3C[C@H](CCl)c4c3cc(N)c3ccccc43)[nH]c2c(OC)c1OC , what GI50 is on record?
0.502 µM (active)

For the compound CN1C(=O)CSC1=S [3-METHYL-RHODANINE] , what GI50 is on record?
> 100 µM (inactive)

For the compound CC(C)C(NCc1c2ccccc2[n+]([O-])c2ccccc12)C(=O)O (stereo unspecified) , what GI50 is on record?
> 100 µM (inactive)

For the compound c1ccc2c(c1)c1c(n2CCOCCCN2CCCCC2)CCCC1 , what GI50 is on record?
27.9 µM (inactive)

For the compound COC(=O)C(Cc1ccccc1)NC(=O)CCCNC(=O)OCc1ccccc1 (stereo unspecified) , what GI50 is on record?
17.1 µM (inactive)

For the compound COc1ccc(-c2cc(=O)c3c(OC)c(OC)c(OC)c(OC)c3o2)c(OC)c1 , what GI50 is on record?
21 µM (inactive)

For the compound NNc1ncnc2cccc(Cl)c12 , what GI50 is on record?
> 100 µM (inactive)

For the compound COC(=O)/C=C(C)/C=C/c1cc(C(C)=O)c(C)o1 , what GI50 is on record?
> 100 µM (inactive)

For the compound NC(=O)c1ccccc1NC(=O)C(=O)Cc1nc2ccccc2nc1O , what GI50 is on record?
> 100 µM (inactive)

For the compound CCOc1ccccc1NC(=O)C(=O)C(/C(=N/N)C(=O)OC)c1nc2ccc([N+](=O)[O-])cc2nc1O (stereo unspecified) , what GI50 is on record?
> 100 µM (inactive)

For the compound COc1nc2ncc([C@@H](O)[C@H](O)CO)nc2c(=O)n1C , what GI50 is on record?
> 100 µM (inactive)

For the compound CC[C@]12C=CCN3CCC4(c5cc(/N=N/c6ccccc6)c(OC)cc5N(C)[C@H]4[C@@](O)(C(=O)OC)[C@@H]1OC(C)=O)[C@@H]32 (stereo partly specified) , what GI50 is on record?
20.6 µM (inactive)

For the compound CCC(C)[C@H](NC(=O)N[C@H](C)c1ccccc1)C(=O)OC (stereo partly specified) , what GI50 is on record?
> 100 µM (inactive)

For the compound O=C(Cn1c(C(=O)/C=C/c2ccc(Cl)c(Cl)c2)nc2ccccc21)c1ccccc1 , what GI50 is on record?
23.2 µM (inactive)

For the compound CC(C)N(C)C(=O)C12C3C4C1C1C2C3C41C#N (stereo unspecified) , what GI50 is on record?
> 100 µM (inactive)

For the compound COc1cc2c(cc1C)NC(=O)/C2=C/c1c(Cl)n(-c2ccccc2)c2ccccc12 , what GI50 is on record?
27.4 µM (inactive)

* * *

# Tested on: SF-268
# test summary: NCI tumour cell line growth inhibition, 48 h
Calls of active or inactive are those of the source. Rule as the data show it: active = GI50 up to about 1.1 µM and inactive = higher. Residues, ends and D or L forms follow the SMILES beside them. *: point of attachment. Boc = CC(C)(C)OC(=O)*; OBn = c1ccc(CO*)cc1
Reply using exactly one outcome from active, inactive

Hi team, can someone confirm the assay call for CC(=O)OCC1OC(n2c(C)c(/N=N/c3ccc(C)cc3)c(C)c(C#N)c2=S)C(OC(C)=O)C(OC(C)=O)C1OC(C)=O (stereo not drawn) ?
inactive

Hi team, can someone confirm the assay call for CCOC(=O)c1nc2cc(Cl)ccc2[nH]c1=O ?
inactive

Hi team, can someone confirm the assay call for CC(C)(C)C(=O)OC12/C(=N/O)CCCCCC1c1ccccc12 (stereo not drawn) ?
inactive

Hi team, can someone confirm the assay call for CC1=NN(c2cccc(Cl)c2)C2(SCC(=O)N2c2nc3ccccc3s2)/C1=C\c1ccc(N(C)C)cc1 (stereo not drawn) ?
inactive

Hi team, can someone confirm the assay call for N/N=C1\CCCc2c1no[n+]2[O-] ?
inactive

Hi team, can someone confirm the assay call for O=C1c2ccc3c4ccccc4n(Cc4ccccc4)c3c2C(=O)N1c1ccccc1 ?
inactive

Hi team, can someone confirm the assay call for CC[C@@]1(O)C(=O)OCc2c1cc1n(c2=O)Cc2c-1nc1ccc(O)cc1c2CC[Si](C)(C)C ?
active

Hi team, can someone confirm the assay call for NC(=S)NNC(=S)NC(=O)c1ccco1 ?
inactive

Hi team, can someone confirm the assay call for O=C(O)CCC1C(=O)C2CCN1CC2 (stereo not drawn) ?
inactive

Hi team, can someone confirm the assay call for CC(C)(C)OC(=O)C(C1NC(C(=O)O)C(C)(C)S1)N1C(=O)c2ccccc2C1=O (stereo not drawn) ?
inactive

Hi team, can someone confirm the assay call for CCCCCCCCCCCCCCCCCCNc1ccn(C2OC(CO)C(OP(=O)(O)OCC(O)COP(=O)(O)OCC3OC(n4cc(F)c(NCCCCCCCCCCCCCCCCCC)nc4=O)CC3O)C2O)c(=O)n1 (stereo not drawn) ?
inactive

Hi team, can someone confirm the assay call for CC(NC(=O)CNC(=O)OC(C)(C)C)C(=O)NC(Cc1ccccc1)C(=O)OCc1ccccc1 (stereo not drawn) (Boc-Gly-Ala-Phe-OBn; configuration not given here) ?
inactive

Hi team, can someone confirm the assay call for Cc1[nH]c2ccccc2c1C1=NO/C(=N\O)C(c2c(C)[nH]c3ccccc23)C1 (stereo not drawn) ?
inactive

Hi team, can someone confirm the assay call for O=c1c2cnccc2cc2c3ccccc3ccn12 ?
inactive

Hi team, can someone confirm the assay call for COC(=O)C(=O)C(C(=O)C(=O)Nc1cccc(C(C)=O)c1)c1nc2ccc([N+](=O)[O-])cc2nc1O (stereo not drawn) ?
inactive

Hi team, can someone confirm the assay call for O=C(O)c1c[nH]c2c(ccc3ncccc32)c1=O ?
inactive

Hi team, can someone confirm the assay call for C[C@]12CCc3nonc3C1CC[C@@H]1C2CC[C@@]2(C)C1CC[C@@H]2O (stereo partly drawn) ?
inactive

Hi team, can someone confirm the assay call for CC(=O)ONC(C(=O)C(C)(C)C)C(=O)C(C)(C)C ?
inactive

Hi team, can someone confirm the assay call for C=C1C(=O)OC2/C=C(\C)C(O)/C=C\C(C)(O)CC(OC(=O)/C(C)=C/C)C12 (stereo not drawn) ?
inactive

Hi team, can someone confirm the assay call for O=C(O)c1cc(/N=C/c2ccccc2O)cc(C(=O)O)c1 ?
inactive

Hi team, can someone confirm the assay call for COc1ccc(NC(=S)c2ccc([N+](=O)[O-])o2)cc1 ?
inactive

Hi team, can someone confirm the assay call for CCOC(=O)C1=C(O)C(=O)c2ccsc2C1=O ?
inactive

Hi team, can someone confirm the assay call for O=C(O)c1nccnc1C(=O)O ?
inactive

Hi team, can someone confirm the assay call for CN/N=C(/CC(=O)c1sc(NNC(C)=O)nc1C)C(=O)Nc1ccc(OC)cc1OC ?
inactive

Hi team, can someone confirm the assay call for CCOC(=O)C1(c2ccccc2)CCCNCC1 (stereo not drawn) ?
inactive

Hi team, can someone confirm the assay call for CCOc1ccccc1NC(=O)C(=O)C(/C(=N/N)C(=O)OC)c1nc2ccc([N+](=O)[O-])cc2nc1O (stereo not drawn) ?
inactive

Hi team, can someone confirm the assay call for CCCCCCCC1(N=[N+]=[N-])C(=O)c2ccccc2N(C)C1=O (stereo not drawn) ?
inactive

Hi team, can someone confirm the assay call for O=C(N/N=C(/CCN1CCCC1)CC(c1ccccc1)c1c(O)c2ccccc2oc1=O)c1ccncc1 (stereo not drawn) ?
inactive

Hi team, can someone confirm the assay call for COc1cc2c(cc1OC)C(=O)C1(C2)[C@H](c2ccccc2)C2C(=O)c3cc(OC)c(OC)cc3C2[C@H]1c1ccccc1 (stereo partly drawn) ?
inactive

Hi team, can someone confirm the assay call for COc1ccc2c(c1)c1c(n2CCN2CCOCC2)-c2cccc(OC)c2CC1 ?
inactive

Hi team, can someone confirm the assay call for NS(=O)(=O)c1nnc(NSc2ccc([N+](=O)[O-])cc2)s1 ?
inactive

Hi team, can someone confirm the assay call for COC(=O)/C=C(/C=C1/C(C#N)=C(N)N(c2ccc(Cl)cc2)C1(C)/C(=C\C(=O)OC)C(=O)OC)C(=O)OC (stereo not drawn) ?
inactive

Hi team, can someone confirm the assay call for O=c1ccc(=O)c2c1c1[nH]c3ccccc3c1c1c(=O)c3ccccc3c(=O)c21 ?
inactive

Hi team, can someone confirm the assay call for CC(=O)OC1C(CCl)OC(N=[N+]=[N-])C(OC(C)=O)C1OC(C)=O (stereo not drawn) ?
inactive

Hi team, can someone confirm the assay call for COc1cccc(/C=C(/C(=O)O)c2cc(OC)c(OC)c(OC)c2)c1 ?
inactive

Hi team, can someone confirm the assay call for C[N+](C)(C)/C=N\c1cccc2c1CCCC2 ?
inactive

Hi team, can someone confirm the assay call for COC(=O)C1(Cc2ccccc2)Cc2ccccc2C1O (stereo not drawn) ?
inactive

Hi team, can someone confirm the assay call for C[C@H]1/C(=C/C(=O)OCCN(C)C)CC[C@H]2[C@H]1C(=O)C[C@H]1C(C)(C)[C@@H](O)CC[C@]21C ?
inactive
